system: sedge, umbrella (small-flower umbrella sedge, Cyperus difformis); test: Test C flooded paddy test; assay type: in vivo; conditions: Flood, 125 g ai/ha; 0 is no effect, 100 is complete control
Please provide measured Plant response rating (scale of 0 to 100), Sedge, Umbrella for the entries that follow.

# query: Plant response rating (scale of 0 to 100), Sedge, Umbrella of entry CN1CC(c2cc(F)cc(F)c2)C(C(=O)Nc2cccc(F)c2F)C1=O (centres unmarked)
0

Need Plant response rating (scale of 0 to 100), Sedge, Umbrella of CN1CC(c2ccc(F)c(C(F)(F)F)c2)C(C(=O)Nc2ccccc2S(C)(=O)=O)C1=O (centres unmarked) , thanks.
0

Name the recorded Plant response rating (scale of 0 to 100), Sedge, Umbrella for Cc1ccc(C2CN(C)C(=O)C2C(=O)Nc2ccccc2F)cc1 (centres unmarked) .
0

What value of Plant response rating (scale of 0 to 100), Sedge, Umbrella has been recorded for this entry: Cc1ccc(C2CN(C)C(=O)C2C(=O)Nc2ccccc2F)cc1F (centres unmarked)
0

May I ask what Plant response rating (scale of 0 to 100), Sedge, Umbrella has been recorded for O=C1NCC(c2cccc(F)c2F)C1C(=O)Nc1cccc(F)c1F (centres unmarked) ?
0

* * *

system: corn (Zea mays); assay: Test A postemergence; format: in vivo; conditions: 500 g ai/ha, postemergence; 0 to 100 scale, 0 no effect, 100 complete control
Please assign NO whenever Plant response rating, Corn is at or above 30, and YES whenever it is below.

Identify whether the molecule CN1CC(c2ccc(F)cc2)C(C(=O)Nc2cccc(F)c2F)C1=O (stereo not shown) records Plant response rating, Corn below 30.
NO

Quick check: Plant response rating, Corn of O=C1NCC(c2cccc(F)c2)C1C(=O)Nc1cccc(F)c1F (racemic) under 30?
NO

Here's an entry: Cc1cccc(C2CNC(=O)C2C(=O)Nc2ccccc2C(F)(F)F)c1 (racemic) . Is its Plant response rating, Corn below 30?
YES

Item Cc1ccc(C2CNC(=O)C2C(=O)Nc2ccc(F)cc2F)cc1F (racemic) : Plant response rating, Corn beneath 30, strictly?
YES

Lab note: Plant response rating, Corn threshold 30. Does this molecule come in strictly under it? O=C1NCC(c2ccc(F)c(F)c2)C1C(=O)Nc1n[nH]cc1Br (racemic)
YES

A record lists C=C(Cl)CN1CC(c2cccc(C(F)(F)F)c2)C(C(=O)Nc2cccc(F)c2F)C1=O (stereo not shown) . Is its Plant response rating, Corn below 30?
YES

Determine whether this molecule shows Plant response rating, Corn lower than 30 (ties excluded): CCc1ccc(C2CNC(=O)C2C(=O)Nc2cccc(F)c2F)cc1 (stereo not shown)
YES

API: query returns whether the molecule falls strictly under 30 in Plant response rating, Corn. Query: CN1CC(c2ccc(Cl)cc2)C(C(=O)Nc2cccc(F)c2F)C1=O (stereo not shown)
NO

Determine if Cc1cccc(C2CNC(=O)C2C(=O)Nc2ccccc2F)c1 (racemic) shows Plant response rating, Corn strictly lower than 30.
YES

* * *

tested on: barnyardgrass (Echinochloa crus-galli); experiment: Test G Pre-Emergence Protocol; format: in vivo; details: Echinochloa crus-galli, pre-emergence, 312 h, 250 g ai/ha, evaluated after 13 days, read-out: Barnyardgrass damage rating (100=total damage to plant; 0=no damage to plant)
Recorded endpoint: pest or weed control at 250 g/ha (%)
Record the value in %, omitting the unit from your answer.

What measured pest or weed control at 250 g/ha goes with COc1cc(C2CN(C)C(=O)C2C(=O)Nc2cccc(F)c2F)cc(C(F)(F)F)c1F (centres unmarked) [Compound 1701] ?
70

Name the reported pest or weed control at 250 g/ha value associated with the compound CN1C[C@H](c2ccc(C(F)(F)F)cc2)[C@@H](C(=O)Nc2cccc(F)[n+]2[O-])C1=O (racemic) [Compound 1814]
0

For the compound shown here, CN1C[C@@H](c2ccc(C(F)(F)F)cc2)[C@H](C(=O)Nc2nccc(=O)[nH]2)C1=O (racemic) [Compound 1622] , give the reported pest or weed control at 250 g/ha.
0

// pest or weed control at 250 g/ha lookup, key: CN1CCCC(NC(=O)[C@H]2C(=O)N(C)C[C@@H]2c2ccc(C(F)(F)F)cc2)C1=O (mixture of isomers) [Compound 1674]
0

Endpoint output: pest or weed control at 250 g/ha of CN1C[C@@H](c2ccc(C(F)(F)F)cc2)[C@H](C(=O)Nc2cccnc2Cl)C1=O (racemic) [Compound 1517] . Value?
90

pest or weed control at 250 g/ha for CN1C[C@@H](c2ccc(C(F)(F)F)cc2)[C@H](C(=O)Nc2nccc(C(F)(F)F)n2)C1=O (racemic) [Compound 1547] ?
0

What measured pest or weed control at 250 g/ha goes with COC(=O)c1nccc(NC(=O)[C@@H]2C(=O)N(C)C[C@H]2c2ccc(C(F)(F)F)cc2)n1 (racemic) [Compound 1537] ?
0

Which measured pest or weed control at 250 g/ha value corresponds to COc1ccc([C@@H]2CN(C)C(=O)[C@H]2C(=O)Nc2cccc(F)c2C)cc1Cl (racemic) [Compound 1793] ?
90

Returns the measured pest or weed control at 250 g/ha for the input compound. Input: COc1cc(OC(F)(F)F)cc(C2CN(C)C(=O)C2C(=O)Nc2cccc(F)c2F)c1 (centres unmarked) [Compound 1697]
80

Quick one: pest or weed control at 250 g/ha of CN1C[C@H](c2ccc(C(F)(F)F)cc2)[C@@H](C(=O)Nc2cnccc2O)C1=O (racemic) [Compound 1466] ?
0

Please give the measured pest or weed control at 250 g/ha for this compound: Cc1csc(NC(=O)[C@@H]2C(=O)N(C)C[C@H]2c2ccc(C(F)(F)F)cc2)c1C#N (racemic) [Compound 1576]
90

Value lookup for pest or weed control at 250 g/ha; key = CN1C[C@@H](c2ccc(C(F)(F)F)cc2)[C@H](C(=O)Nc2ccc(Cl)nc2)C1=O (racemic) [Compound 1525]
40

What value of pest or weed control at 250 g/ha has been reported for the following compound? Cc1c(Cl)cccc1NC(=O)[C@@H]1C(=O)N(C)C[C@H]1c1ccc(C(F)(F)F)cc1 (racemic) [Compound 1607]
80

Item under review: CN1C[C@@H](c2cccc(C(F)(F)F)c2)[C@H](C(=O)Nc2cccc(F)n2)C1=O [Compound 1817] . Reported pest or weed control at 250 g/ha?
0
